Tested on: MS2 coat protein
measurement_description: apparent KD of MS2 coat protein; designed switch direction (-1 OFF switch, 1 ON switch): 1; higher = weaker reporter binding
condition_summary: input ligand: microRNA oligo, concentration not stated
parameter_measured: apparent KD of MS2 coat protein (nM)
Give the value, in units of nM, as a plain number.

sequence_data: UAGUAUUAGCGAGGAUAUCGUAUGUUCAAUUUUUUAUAUUGUUUACAUGAGGAUCACCCAUGUUACGAGAAGGCGCAUGGGAUU [JR_SSNG2_Sub081] (Eterna round: R96, puzzle: Same State NG 2)
target_or_test_system: MS2 coat protein
endpoint_value: 371
//
sequence_data: ACAUGAGACUCAGGAUAUCAUGUACCUACAUGUGACAUGAGGAUCACCCAUGUGGUAAGUAUGACUGAGAAGGGAGAGAUAUGU [Equivalance 88 - Jieux - Same State NG 2] (Eterna round: R96, puzzle: Same State NG 2)
target_or_test_system: MS2 coat protein
endpoint_value: 159
//
sequence_data: UCGGGCGUACUUGCUGACAUGAGGAUCACCCAUGUAAAUGGGAAGGAUAUGGUUCCGUUUCGGUACCAGAAGGUCCUGGGUGCU [salish99_SSNG3_r04_310] (Eterna round: R96, puzzle: Same State NG 3)
target_or_test_system: MS2 coat protein
endpoint_value: 748
//
sequence_data: UUGCUCGUGUGAGGAUAUGCCGCCGUUUCGGCUGCAGAAGGUACUCUAAUACAUGAGGAUCACCCAUGUCUCUGUUGUUUCGUG [salish99_SSNG1_r04_935] (Eterna round: R96, puzzle: Same State NG 1)
target_or_test_system: MS2 coat protein
endpoint_value: 52.4

Turning now to a further record.
Q) Form field: reported apparent KD of MS2 coat protein of AAAUAGCAUGGAAACAUGCUAAAAACUGUACAUGAGGAUCACCCAUGUCAUGUGUAGGCUUUUUGUUCGUCUUAUAA [Effort 12] (Eterna round: R96, puzzle: Sensor for hsa-mir-208a)
A) 12.3

* * *

System: MS2 coat protein
measurement_description: apparent KD of MS2 coat protein; higher = weaker reporter binding
condition_summary: Eterna round: R107; input ligand: none
parameter_measured: apparent KD of MS2 coat protein (µM)
Give the value, in units of µM, as a plain number.

Some entries whose results are on file:
sequence_data: UGUAUGUGAUCUGAUACCAGCUAAUAAGCUUGAGGAUCACCCAAGUGGAGCGGAAACGCAAGCCCUUGGCAGCAGAUCGCAUACU [Denovo 4 #StaticStem #AlternativeMS2]
apparent KD of MS2 coat protein [µM]: 0.0893

sequence_data: CGGUCGGUCGGUCGGUGAGUAUGGGAUGAAGGAGCGUGGGAAGCUACAGGUAGGUCGCAUCCGGGACAUGAGGAUCACCCAUGUU [#19 Same State - Arginine A]
apparent KD of MS2 coat protein [µM]: 0.0277

Q) Form field: reported apparent KD of MS2 coat protein of UUCUUUAAGUCGGCCGCCACUGAAACAUGAGGAUCACCCAUGUAUAUUUGUGUAUAGGUGGAUUACAGGACCGGGACUAUAGUAA [JR_ExcTryptoB_Sub023]
A) 0.0147

Q) Now the sequence UGAGUUCGCUGAUGGGCUACGUCAGGUGAUACCAGCCACUCCCGCGGCCCUUGGCAGCACAUGAGGAUCACCCAUGUAGAGCUUG [Lazaceonus]
A) 0.0157

Q) Now the sequence GGUGGCGUGACGGAUACCAGCCACCGCGGCAACGCAACAUGAGGAUCACCCAUGUUGGGUGGCCCUUGGCAGCUGUCGUGCGGCG [#1 Same State - Theophylline B Attempt #23 (HarryS)]
A) 0.0862

* * *

System: MS2 coat protein
measurement_description: apparent KD of MS2 coat protein; designed switch direction (-1 OFF switch, 1 ON switch): -1; higher = weaker reporter binding
condition_summary: input ligand: microRNA oligo, concentration not stated
# reported apparent KD of MS2 coat protein; entries follow
Give the value, in units of nM, as a plain number.

sequence_data: UUUUUAAAUGAAGGAUAUACUUAACAUGAGGAUCACCCAUGUGGUGUUGUGAGUGAGUGAGUUUAGUAGAAGGUCAAUUCUUUU [JMF's solution 86] (Eterna round: R96, puzzle: Exclusion NG 2)
unit_symbol: nM
apparent KD of MS2 coat protein: 300

sequence_data: GUUGUUUAUGUAGGAUAUGCCUGGCGUGCCUUUGCAGAAGGACAUGAGGAUCACCCAUGUAUUGCGGUCUGCGUUCAGAUCGCU [salish99_ExNG1_r4_022] (Eterna round: R96, puzzle: Exclusion NG 1)
unit_symbol: nM
apparent KD of MS2 coat protein: 26.2

sequence_data: ACAUGUAAUGCAGGAUAUCGGACACAUGAGGAUCACCCAUGUGACCAGAGGUAUUGCUAAGAGUCUGAGAAGGGUAUGUACAUG [Ex NG2 #50] (Eterna round: R96, puzzle: Exclusion NG 2)
unit_symbol: nM
apparent KD of MS2 coat protein: 17.5

sequence_data: UGAUCUAGGCGAGGAUAUACAUGAGGAUCACCCAUGUAAACGUGACAUGGAAACAUGUCACGUGUGUAGAAGGCGCCUAGAUCU [MOD2 ENG2 3.54 by JL] (Eterna round: R96, puzzle: Exclusion NG 2)
unit_symbol: nM
apparent KD of MS2 coat protein: 10.8

sequence_data: GGAUAUAACGUAGGAUAUCUGAGAAAUAGAUGAAGAGAAGGACGACAUGAGGAUCACCCAUGUGAUCUAUCAAUAUUAUACAUG [Prohibition 100 - Jieux - Exclusion NG 1] (Eterna round: R96, puzzle: Exclusion NG 1)
unit_symbol: nM
apparent KD of MS2 coat protein: 332

sequence_data: AAUUAUUAUUGAGGAUAUGGUAGUGAAACACUACCAGAAGGCGGUAUAAACAUGAGGAUCACCCAUGUGAGCCUGAUGCUUAUG [Ex NG1 #45] (Eterna round: R96, puzzle: Exclusion NG 1)
unit_symbol: nM
apparent KD of MS2 coat protein: 18.6

Q) Form field: reported apparent KD of MS2 coat protein of AUAAAUCAUGUAGGAUAUGCGUGGCGAAGCUAUGCAGAAGGACAUGAGGAUCACCCAUGUGCUUGCGUCCGCGUACGGAUGCAA [Mat - Exclusion NG 1 - Mod of JL - D69] (Eterna round: R96, puzzle: Exclusion NG 1)
A) 155

Q) Now the sequence UAGCAUUGCCAAAGGUAGUGCUUUACAUGAGGAUCACCCAUGUAGGAUAUGGUAGGCAAAGCUUACCAGAAGGACAUGAUAAUU [Mat - Exclusion NG 3 - Mod of JL - D12] (Eterna round: R96, puzzle: Exclusion NG 3)
A) 45.1

Q) Now the sequence ACAUGACCGCUAGGAUAUAGAUGACAUGAGGAUCACCCAUGUUGUCCCAUGUUGACGAUCACCGACUAGAAGGAGCCACCCAUG [ExNG2 5th] (Eterna round: R96, puzzle: Exclusion NG 2)
A) 34.6

Q) Now the sequence AGAGUGCUGCGAGGAUAUACAUGAGGAUCACCCAUGUAAAAGUGUGAGGCUUUGCCUCACACUAUGUAGAAGGCGCAGUACUCA [Mat - Exclusion NG 2 - Mod of JL - D10] (Eterna round: R96, puzzle: Exclusion NG 2)
A) 9.4

Q) Now the sequence GUCAGCUCGUCAGGAUAUACAUGAGGAUCACCCAUGUGAUCAAUAGCAGCUUCGGCUGCAAUAAUGUAGAAGGGACGAGCUGAC [ENG2/8-F] (Eterna round: R96, puzzle: Exclusion NG 2)
A) 578

Q) Now the sequence GCCUGUGCCCUAGGAUAUCGCCCAGCCAAUGGAUGAGAAGGAGGCGGGUGAAACAUGAGGAUCACCCAUGUAAACGCACAAGCA [Inusri] (Eterna round: R96, puzzle: Exclusion NG 1)
A) 14.5

Q) Now the sequence AAGAUGCGCGCAGGAUAUGGAGAGAAAGAAAGACCAGAAGGGCGGGUCACACAACAUGAGGAUCACCCAUGUGUGUGUUGCGAA [snuffleupagus] (Eterna round: R96, puzzle: Exclusion NG 1)
A) 9.54

Q) Now the sequence CUUUAGUGAGGAUAUUAGUAGUAAUACAAUAGUAUUACUACUGAGAAGGCACAUGAGGAUCACCCAUGUUCCUC [Mat - Exclusion 4 - Mod of Omei - D79] (Eterna round: R96, puzzle: Exclusion 4)
A) 25

Q) Now the sequence AAUUAUUUUUGAGGAUAUCGUGGUGAAACACCACGAGAAGGCGAGAUACACAUGAGGAUCACCCAUGUGAGCCUGAUGCUUAUG [Ex NG1 #51] (Eterna round: R96, puzzle: Exclusion NG 1)
A) 11.5

Q) Now the sequence ACAUGAGGAUCACCCAUGUCUGGCUGGUCUGUUCCGGCUGUCGAGGAUAUAGUCCGGUGUUCGCGCUAGAAGGUGAGGGCUGGA [Aenatbe mod 44] (Eterna round: R96, puzzle: Exclusion NG 3)
A) 68.6

Q) Now the sequence GUACGCUCAGGAUAUCAAGGGCUGUACAUGAGGAUCACCCAUGUUAUCUUGGUGUCAGCGUGAGAAGGGAGGGAAA [Xesoonesa] (Eterna round: R96, puzzle: Exclusion 5)
A) 20.2

Q) Now the sequence CUGGUCUAUGUAGGAUAUGGUGUAUAUGUAUUACCAGAAGGACAUGAGGAUCACCCAUGUGUCGUGGUAUGAGUAGGUGAUGUU [Random] (Eterna round: R96, puzzle: Exclusion NG 1)
A) 40.2
